Hey, just so you know, these numbers are from the supplement of paper PMC10567573.

B1: ZNF263 (parent)
chain: QRTHTGEKPYKCPECGEIFAHSSN

variants of: B1; assay: protein stability index of a GFP-peptide fusion (GPS, HEK-293T) (PSI 1-6); higher = more stable; conditions: c terminus: a fixed tail appended;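 also: lentivirally expressed fusions sorted by FACS into six bins by GFP to DsRed ratio, PSI derived from sequencing read proportions per bin multiplied by bin number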
Hi, to clarify the labels: class 1 covers protein stability index from 4 upward, class 0 covers anything below 4.

## Task Test whether the variant `I18D` records protein stability index of 4 or higher.
## Result class 0

## Task Can you handle `P13H` next?
## Result class 0

## Task Another variant to check: `G6A`
## Result class 0

## Task Same again, this time with `S22D`
## Result class 0

## Task Follow-up item: `C12I`
## Result class 0

## Task Next record, please: `G16H`
## Result class 0

## Task And then `F19E` , what is it?
## Result class 1

## Task `R2C` , same question.
## Result class 1

## Task Same again, this time with `N24S`
## Result class 0

## Task Can you handle `E17I` next?
## Result class 0
